Biological target: HCoV-OC43 S protein (S1+S2 ECD) (Human coronavirus OC43 (HCoV-OC43)., UniProt P36334)
Sequence (P36334 14-1297): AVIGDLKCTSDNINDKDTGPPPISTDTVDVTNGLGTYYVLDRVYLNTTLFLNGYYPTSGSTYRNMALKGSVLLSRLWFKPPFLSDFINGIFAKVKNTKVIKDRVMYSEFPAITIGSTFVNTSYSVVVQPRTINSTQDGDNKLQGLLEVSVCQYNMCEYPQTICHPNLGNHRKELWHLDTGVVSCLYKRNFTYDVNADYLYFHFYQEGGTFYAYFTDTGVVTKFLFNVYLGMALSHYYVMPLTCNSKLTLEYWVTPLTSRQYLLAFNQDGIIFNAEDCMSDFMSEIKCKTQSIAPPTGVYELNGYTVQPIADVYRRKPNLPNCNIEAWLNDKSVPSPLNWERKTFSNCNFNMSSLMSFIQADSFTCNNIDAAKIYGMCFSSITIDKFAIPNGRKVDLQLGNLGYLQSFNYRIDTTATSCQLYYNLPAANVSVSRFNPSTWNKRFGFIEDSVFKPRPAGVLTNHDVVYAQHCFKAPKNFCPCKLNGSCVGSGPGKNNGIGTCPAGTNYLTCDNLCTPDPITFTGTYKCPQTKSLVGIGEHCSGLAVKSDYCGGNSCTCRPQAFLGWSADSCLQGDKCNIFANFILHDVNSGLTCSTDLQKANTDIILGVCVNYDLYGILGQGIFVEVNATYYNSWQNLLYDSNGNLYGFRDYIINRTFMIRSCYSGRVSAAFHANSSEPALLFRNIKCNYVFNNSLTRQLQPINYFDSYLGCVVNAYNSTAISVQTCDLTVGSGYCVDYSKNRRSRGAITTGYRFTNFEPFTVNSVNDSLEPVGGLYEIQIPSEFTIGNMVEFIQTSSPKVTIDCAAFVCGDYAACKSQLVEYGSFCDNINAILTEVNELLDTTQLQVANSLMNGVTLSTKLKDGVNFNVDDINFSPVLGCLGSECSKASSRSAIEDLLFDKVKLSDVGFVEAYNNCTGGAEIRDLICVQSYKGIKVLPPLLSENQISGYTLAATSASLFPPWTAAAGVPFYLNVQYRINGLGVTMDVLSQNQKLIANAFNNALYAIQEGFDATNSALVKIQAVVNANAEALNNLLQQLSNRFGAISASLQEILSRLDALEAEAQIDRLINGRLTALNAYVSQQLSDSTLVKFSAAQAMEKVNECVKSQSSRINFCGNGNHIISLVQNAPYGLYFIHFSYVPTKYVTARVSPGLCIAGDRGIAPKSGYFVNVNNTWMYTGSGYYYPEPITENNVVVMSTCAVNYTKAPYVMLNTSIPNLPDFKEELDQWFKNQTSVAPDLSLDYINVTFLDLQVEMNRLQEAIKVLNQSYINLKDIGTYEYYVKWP
Test: ELISA
experimental readout: binding result

binder: C13B8 mAb (antibody, V domains shown) VH: QVQLQESGPGLVQPSQTLTLTCTVSGDSISNEDYHWTWIRQHPGKGLEWMGYLQYSGNTNYNPSLKSRMTISVDTSKNQFSLRLNSVTAADTAVYFCATSIVLTGMSNKIQPFDYWGQGTLVTVSS VL: SYELTQPPSVSVSPGQMARITCSGEALPKKYAYWYQQKGGQFPVLVIYKDTERPSGIPERFSGSSSGTIVTLTISGVQPEDEADYYCLSADTSGTWVFGGGTKLTVL
experimental value: binds
